The measurements presented in this section are drawn from ChEMBL document CHEMBL2331499.

Molecular target: Vascular endothelial growth factor receptor 1 (Homo sapiens)
Sequence (P17948 whole entry): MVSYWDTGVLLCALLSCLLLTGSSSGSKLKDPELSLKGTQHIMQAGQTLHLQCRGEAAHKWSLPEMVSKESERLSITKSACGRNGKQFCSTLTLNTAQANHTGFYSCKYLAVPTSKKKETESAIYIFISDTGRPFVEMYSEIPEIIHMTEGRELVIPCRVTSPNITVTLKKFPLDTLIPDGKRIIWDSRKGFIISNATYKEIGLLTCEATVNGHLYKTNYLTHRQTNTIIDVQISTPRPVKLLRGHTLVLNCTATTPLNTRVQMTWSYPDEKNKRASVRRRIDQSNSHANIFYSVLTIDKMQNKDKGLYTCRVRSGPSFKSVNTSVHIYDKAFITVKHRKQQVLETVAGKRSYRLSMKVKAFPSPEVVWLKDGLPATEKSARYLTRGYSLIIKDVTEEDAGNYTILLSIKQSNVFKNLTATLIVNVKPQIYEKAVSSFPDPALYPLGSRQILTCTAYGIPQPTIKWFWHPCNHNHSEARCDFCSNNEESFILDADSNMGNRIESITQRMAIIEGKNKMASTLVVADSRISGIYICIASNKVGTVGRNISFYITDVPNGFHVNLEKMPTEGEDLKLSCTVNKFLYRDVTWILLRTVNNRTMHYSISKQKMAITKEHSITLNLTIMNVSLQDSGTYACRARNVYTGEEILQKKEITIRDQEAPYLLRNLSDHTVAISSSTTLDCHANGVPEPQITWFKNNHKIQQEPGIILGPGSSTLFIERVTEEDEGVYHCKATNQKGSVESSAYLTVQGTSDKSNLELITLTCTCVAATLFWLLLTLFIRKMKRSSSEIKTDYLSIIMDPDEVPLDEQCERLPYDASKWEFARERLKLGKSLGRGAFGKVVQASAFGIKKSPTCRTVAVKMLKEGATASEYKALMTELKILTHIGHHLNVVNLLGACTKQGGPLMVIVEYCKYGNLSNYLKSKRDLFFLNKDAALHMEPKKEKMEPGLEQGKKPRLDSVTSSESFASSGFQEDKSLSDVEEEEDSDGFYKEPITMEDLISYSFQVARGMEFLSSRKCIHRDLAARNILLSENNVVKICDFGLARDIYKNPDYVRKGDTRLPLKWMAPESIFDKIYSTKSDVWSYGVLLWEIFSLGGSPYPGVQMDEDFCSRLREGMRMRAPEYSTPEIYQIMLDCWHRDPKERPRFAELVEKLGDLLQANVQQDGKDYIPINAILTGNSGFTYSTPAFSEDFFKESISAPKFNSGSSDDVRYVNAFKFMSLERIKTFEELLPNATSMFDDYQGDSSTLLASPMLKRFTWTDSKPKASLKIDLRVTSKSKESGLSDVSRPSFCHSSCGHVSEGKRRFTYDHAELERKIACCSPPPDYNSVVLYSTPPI
Experiment: Inhibition of VEGF-induced VEGFR1 phosphorylation in human A498 cells overexpressing Flt-1 pretreated for 60 mins prior to VEGF addition measured after 10 mins by phosphotyrosine ELISA cytoblot analysis

>  <structure-smiles-string>
Nc1nc(Nc2ccc(F)c(C(F)(F)F)c2)c2cc(CCc3ccccn3)[nH]c2n1

>  <limit-qualifier>
>

>  <IC50 [µM]>
200

$$$$
>  <structure-smiles-string>
CC(C)(C)C(=O)Nc1nc(Nc2ccc(F)c(Cl)c2)c2cc(CCc3ccccn3)[nH]c2n1

>  <limit-qualifier>
>

>  <IC50 [µM]>
200

$$$$
>  <structure-smiles-string>
CC(C)(C)C(=O)Nc1nc(Nc2ccc(F)c(Br)c2)c2cc(CCc3ccccn3)[nH]c2n1

>  <limit-qualifier>
>

>  <IC50 [µM]>
200

$$$$
>  <structure-smiles-string>
C#Cc1cccc(Nc2nc(NC(=O)C(C)(C)C)nc3[nH]c(CCc4ccccn4)cc23)c1

>  <limit-qualifier>
=

>  <IC50 [µM]>
156

$$$$
>  <structure-smiles-string>
CC(C)(C)C(=O)Nc1nc(Nc2cccc(C(F)(F)F)c2)c2cc(CCc3ccccn3)[nH]c2n1

>  <limit-qualifier>
=

>  <IC50 [µM]>
130

$$$$
